tested on: Staphylococcus aureus; assay: Microplate dilution assay MIC/MLC; assay type: cell-based; settings: growth less than 10% of control

COMPOUND	MIC < 10% / Weight percent
Oc1cc(Cl)ccc1Oc1ccc(Cl)cc1Cl	0.00002
CCCCC(CC)CC(CC)C[N+](C)(C)Cc1ccccc1.[Cl-] (stereo not shown)	0.00039
Cc1cc(O)cc(C)c1Cl	0.0042
CCCCCCCCCCCC[N+](C)(C)Cc1ccccc1.[Cl-]	0.0002

====

tested on: Staphylococcus aureus; experiment: Microplate dilution assay MIC/MLC; assay type: cell-based; conditions: minimum lethal concentration
In this section we review reported MLC values for a set of compounds.
MEASURED ENDPOINT: MLC (Weight percent)

COMPOUND	EXPERIMENTAL SYSTEM	VALUE UNIT	COMPARATOR	ENDPOINT VALUE
Cc1cc(O)cc(C)c1Cl	Staphylococcus aureus	Weight percent	>	0.0083
CCCCC(CC)CC(CC)C[N+](C)(C)Cc1ccccc1.[Cl-] (stereo not shown)	Staphylococcus aureus	Weight percent	=	0.00078
Oc1cc(Cl)ccc1Oc1ccc(Cl)cc1Cl	Staphylococcus aureus	Weight percent	=	0.00003
CCCCCCCCCCCC[N+](C)(C)Cc1ccccc1.[Cl-]	Staphylococcus aureus	Weight percent	=	0.0002

The origin of these recorded values is patent US20190218170A1.
